Measured ED50 accompanies every entry in the list below.
Target: Angiotensin II receptor (Rattus norvegicus) (UniProt P29089+P25095+P35351)
Assay: Inhibition of pressor response induced by Angiotensin II in Alderley Park Wistar rats after single intravenous dose
Type: functional
Write it as a number; the unit mg/kg goes unstated.

Sample answers from the record:
Smiles string: CCCCc1nc2ccnc(O)c2n1Cc1ccc(-c2ccccc2-c2nn[nH]n2)cc1
Value type: ED50
Unit of measure: mg/kg
Reported measurement: 0.35
//
Smiles string: CCc1nc2c(C)cc(C)nc2n1Cc1ccc(-c2ccccc2-c2nn[nH]n2)cc1
Value type: ED50
Unit of measure: mg/kg
Reported measurement: 0.22

Challenge: Any idea what ED50 was measured for CCCCc1nc2c(=O)[nH][nH]c(=O)c2n1Cc1ccc(-c2ccccc2-c2nn[nH]n2)cc1 ?
Response given: 0.04

Challenge: Next entry: CCCCc1nc2ccccc2n1Cc1ccc(-c2ccccc2-c2nn[nH]n2)cc1
Response given: 5.2
